Give measured MFI pH 7.4 for each item. Keep answers brief.
Biological target: T1, human CD3 on CD3+ Jurkat cells (human, UniProt P07766 23-207)
T1 construct: whole, on cells; Native CD3 complex on cells; the other CD3 chains are not specified for this assay; also called Human CD3+ Jurkat
T1 sequence (P07766 23-207): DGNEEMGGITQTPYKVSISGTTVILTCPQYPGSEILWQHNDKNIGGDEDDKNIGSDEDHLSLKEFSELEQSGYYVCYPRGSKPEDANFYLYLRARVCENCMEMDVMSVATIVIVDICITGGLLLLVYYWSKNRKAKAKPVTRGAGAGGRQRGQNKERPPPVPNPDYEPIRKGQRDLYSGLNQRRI
Test: flow cytometry, 100 nM IgG on CD3+ Jurkat cells, pH 7.4
Protocol: Specificity of the anti-CD3 antibodies for human CD3+ Jurkat cells compared to CHO-S cells at pH 6.0 and 7.4 was determined using a FACS cell binding assay. Briefly, CD3+ human Jurkat cells and CHO-S cells were thawed and washed with cold PBSF buffer, pH 7.4 (PBS+0.1% BSA, pH 7.4). About 200,000 cells were aliquoted per well of a 96-well plate and pelleted by centrifugation (5 minutes at 500×g). […] Binding was analyzed on FACS Canto II. Cell binding assays. […] Binding was analyzed on FACS Canto II.
Answer with a number only, understood to be in MFI.

stdin: # MFI pH 7.4 lookup, item SAD10318_P03_H08 (ADI-48607) (antibody, V domains shown, IgG; also called Ab202) VH: QVQLVQSGAEVKKPGASVKVSCKASGFNIKDYYMHWVRQAPGQRLEWMGWIDLENANTIYDAKFQGRVTITRDTSASTAYMELSSLRSEDTAVYYCARDAYHHYFYDVWGQGTLVTVSS VL: DIVMTQSPDSLAVSLGERATINCKSSQSLLNARTGHNHLAWYQQKPGQPPKLLIYWASTRESGVPDRFSGSGSGTDFTLTISSLQAEDVAVYYCHQSHSRRTFGGGTKVEIK
stdout: 52

stdin: Further, for SAD10318_P01_E01 (ADI-48577) (antibody, V domains shown, IgG; also called Ab193) VH: QVQLVQSGAEVKKPGASVKVSCKASGFNIKDYYMHWVRQAPGQRLEWMGWIDLENANTIYDAKFQGRVTITRDTSASTAYMELSSLRSEDTAVYYCARDAHHRYFYDVWGQGTLVTVSS VL: DIVMTQSPDSLAVSLGERATINCKSSQSLLNAHEGKNYLAWYQQKPGQPPKLLIYWASTRESGVPDRFSGSGSGTDFTLTISSLQAEDVAVYYCKQSHSHRTFGGGTKVEIK ?
stdout: 73

stdin: Further, for SAD10319_P01_A01 (ADI-48619) (antibody, V domains shown, IgG; also called Ab229) VH: QVQLVQSGAEVKKPGASVKVSCKASGYTFASYAMHWVRQAPGQRLEWMGWINPDTGNTVYSQKFQGRVTITRDTSASTAYMELSSLRSEDTAVYYCARDAYHHYFYDVWGQGTLVTVSS VL: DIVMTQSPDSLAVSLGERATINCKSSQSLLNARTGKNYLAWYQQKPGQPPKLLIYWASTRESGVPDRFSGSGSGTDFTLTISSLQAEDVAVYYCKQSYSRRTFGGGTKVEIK ?
stdout: 129

stdin: Further, for SAD10318_P03_E07 (ADI-48601) (antibody, V domains shown, IgG; also called Ab191) VH: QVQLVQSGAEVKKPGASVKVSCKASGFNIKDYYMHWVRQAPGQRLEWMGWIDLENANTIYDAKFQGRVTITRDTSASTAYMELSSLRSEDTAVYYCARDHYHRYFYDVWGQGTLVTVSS VL: DIVMTQSPDSLAVSLGERATINCKSSQSLLNAHTGKNYLAWYQQKPGQPPKLLIYWASTRESGVPDRFSGSGSGTDFTLTISSLQAEDVAVYYCHQSHSRRTFGGGTKVEIK ?
stdout: 52

stdin: Further, for LAD5224_P03_A01 (ADI-26906) (antibody, V domains shown, IgG; also called Ab1; parent clone) VH: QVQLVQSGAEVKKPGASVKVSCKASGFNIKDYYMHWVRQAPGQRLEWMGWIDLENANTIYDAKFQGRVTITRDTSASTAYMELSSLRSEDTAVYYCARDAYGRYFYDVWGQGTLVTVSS VL: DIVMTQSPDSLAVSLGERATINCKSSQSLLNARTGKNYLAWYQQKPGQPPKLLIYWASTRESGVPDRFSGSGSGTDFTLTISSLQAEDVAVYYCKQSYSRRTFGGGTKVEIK ?
stdout: 5270

stdin: Further, for SAD10318_P02_C05 (ADI-48597) (antibody, V domains shown, IgG; also called Ab180) VH: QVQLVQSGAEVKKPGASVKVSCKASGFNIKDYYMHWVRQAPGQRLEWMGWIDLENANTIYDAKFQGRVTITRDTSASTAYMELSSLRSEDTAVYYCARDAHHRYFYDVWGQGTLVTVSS VL: DIVMTQSPDSLAVSLGERATINCKSSQSLLNARTGHNHLAWYQQKPGQPPKLLIYWASTRESGVPDRFSGSGSGTDFTLTISSLQAEDVAVYYCKQSHSHRTFGGGTKVEI ?
stdout: 61

stdin: Further, for SAD10318_P03_F07 (ADI-48602) (antibody, V domains shown, IgG; also called Ab192) VH: QVQLVQSGAEVKKPGASVKVSCKASGFNIKDYYMHWVRQAPGQRLEWMGWIDLENANTIYDAKFQGRVTITRDTSASTAYMELSSLRSEDTAVYYCARDAHGRYHYDVWGQGTLVTVSS VL: DIVMTQSPDCLAVSLGERATINCKSSQSLLNARTGHNYLAWYQQKPGQPPKLLIYWASTRESGVPDRFSGSGSGTDFTLTISSLQAEDVAVYYCKQSHSHRTFGGGTKVEIK ?
stdout: 34

stdin: Further, for SAD10318_P01_B02 (ADI-48582) (antibody, V domains shown, IgG; also called Ab248) VH: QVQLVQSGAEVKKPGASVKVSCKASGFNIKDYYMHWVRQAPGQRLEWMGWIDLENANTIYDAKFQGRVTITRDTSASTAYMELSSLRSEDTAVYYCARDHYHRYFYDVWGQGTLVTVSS VL: DIVMTQSPDSLAVSLGERATINCKSSQSLLNARTGHNHLAWYQQKPGQPPKLLIYWASTRESGVPDRFSGSGSGTDFTLTISSLQAEDVAVYYCKQSHSHRTFGGGTKVEIK ?
stdout: 36

stdin: Further, for SAD10319_P04_G11 (ADI-48641) (antibody, V domains shown, IgG; also called Ab39) VH: QVQLVQSGAEVKKPGASVKVYCKASGYTFTTYEMHWVRQAPGQRLEWMGSINAGDANTKYSQKFQGRVTITRDTSASTAYMELSSLRSEDTAVYYCARDAYHHYFYDVWGQGTLVTVSS VL: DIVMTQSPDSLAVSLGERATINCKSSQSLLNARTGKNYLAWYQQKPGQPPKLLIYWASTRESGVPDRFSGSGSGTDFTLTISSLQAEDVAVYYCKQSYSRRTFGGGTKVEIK ?
stdout: 52

stdin: Further, for SAD10319_P01_C03 (ADI-48626) (antibody, V domains shown, IgG; also called Ab244) VH: QVQLVQSGAEVKKPGASVKVSCKASGYTFTDYDMHWVRQAPGQRLEWMGWIDPYTGATKYSQKFQGRVTITRDTSASTAYMELSSLRSEDTAVYYCARDAYGHYFYDVWGQGTLVTVSS VL: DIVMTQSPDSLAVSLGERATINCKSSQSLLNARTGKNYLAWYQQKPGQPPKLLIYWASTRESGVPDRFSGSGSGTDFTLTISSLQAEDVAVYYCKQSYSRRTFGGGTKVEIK ?
stdout: 369
